Data origin, for the record: ChEMBL document CHEMBL1159178

target: Gastrin/cholecystokinin type B receptor (Mus musculus, UniProt P56481); assay: Evaluated for in vitro binding affinity towards cholecystokinin-B (CCK-B) receptor in mouse cerebral cortex using [125I]bolton hunter CCK-26-33 as radioligand; 365-1590; format: tissue-based
Sequence (P56481 whole entry): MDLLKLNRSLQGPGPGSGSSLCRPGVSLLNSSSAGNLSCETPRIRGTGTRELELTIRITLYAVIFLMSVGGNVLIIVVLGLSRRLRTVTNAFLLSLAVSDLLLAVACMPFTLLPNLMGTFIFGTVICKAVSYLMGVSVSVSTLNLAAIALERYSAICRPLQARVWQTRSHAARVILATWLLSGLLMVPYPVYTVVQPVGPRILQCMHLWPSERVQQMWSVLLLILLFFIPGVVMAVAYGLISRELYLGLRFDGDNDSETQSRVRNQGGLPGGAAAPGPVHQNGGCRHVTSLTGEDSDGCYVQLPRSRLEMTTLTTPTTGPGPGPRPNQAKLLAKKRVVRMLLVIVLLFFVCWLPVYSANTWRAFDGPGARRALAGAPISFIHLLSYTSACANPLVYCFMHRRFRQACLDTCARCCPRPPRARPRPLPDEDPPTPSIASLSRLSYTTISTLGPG
measured_metric: IC50 (nM)
A number alone suffices; assume nM.

Reported IC50 of CC(Cc1c[nH]c2ccccc12)(NC(=O)OC1C2CC3CC(C2)CC1C3)C(=O)NC(CO)Cc1ccccc1 (stereo unspecified) : 852

====

Molecular target: Cholecystokinin receptor type A (Rattus norvegicus)
Sequence (P30551 whole entry): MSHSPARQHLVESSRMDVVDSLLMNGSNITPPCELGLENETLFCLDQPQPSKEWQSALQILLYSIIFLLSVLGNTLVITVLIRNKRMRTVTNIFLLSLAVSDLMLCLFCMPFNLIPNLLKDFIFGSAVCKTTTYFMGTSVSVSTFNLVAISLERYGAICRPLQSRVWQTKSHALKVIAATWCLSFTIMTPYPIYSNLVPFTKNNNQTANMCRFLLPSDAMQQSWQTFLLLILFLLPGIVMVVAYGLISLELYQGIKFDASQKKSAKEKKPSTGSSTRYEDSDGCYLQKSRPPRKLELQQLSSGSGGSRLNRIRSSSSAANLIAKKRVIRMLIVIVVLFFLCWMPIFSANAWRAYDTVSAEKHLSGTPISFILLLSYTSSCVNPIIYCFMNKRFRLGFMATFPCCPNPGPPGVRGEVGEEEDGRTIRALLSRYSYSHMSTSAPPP
Assay: Evaluated for in vitro binding affinity to cholecystokinin-A (CCK-A) receptor in homogenized rat pancreas using [125I]bolton hunter CCK-26-33 as radioligand; 743-1710
measured_metric: pIC50
API: returns pIC50 as number; meaning -log10 of concentration in mol/L.

Record summary for O=C(OC1C2CC3CC(C2)CC1C3)N1CCCC1(Cc1c[nH]c2ccccc12)C(=O)NC(CO)Cc1ccccc1 (stereo unspecified) : reported pIC50 = 5.98

====

molecular target: Gastrin/cholecystokinin type B receptor (Mus musculus, UniProt P56481); experiment: Evaluated for in vitro binding affinity towards cholecystokinin-B (CCK-B) receptor in mouse cerebral cortex using [125I]bolton hunter CCK-26-33 as radioligand; 1790-2700; type: tissue-based
measured_metric: IC50 (nM)
The answer is to be given in nM; state only the numeric part.

Lab book: IC50 of O=C(OC1C2CC3CC(C2)CC1C3)N1CCCC1(Cc1c[nH]c2ccccc12)C(=O)NC(CO)Cc1ccccc1 (stereo unspecified) noted as 2080

====

molecular target: Cholecystokinin receptor type A (Rattus norvegicus, UniProt P30551); assay: Evaluated for in vitro binding affinity to cholecystokinin-A (CCK-A) receptor in homogenized rat pancreas using [125I]bolton hunter CCK-26-33 as radioligand; 770-2020
measured_metric: pIC50
Would you please state pIC50, meaning minus log10 of the concentration in mol/L, as a bare number?

# compound CC(Cc1c[nH]c2ccccc12)(NC(=O)OC1C2CC3CC(C2)CC1C3)C(=O)NC(CO)Cc1ccccc1 (stereo unspecified) ; its pIC50 = 5.97
